// data source = patent KR20140095558A

tested-on: T1, BSA (bovine serum albumin) (bovine (송아지 혈청 알부민), UniProt P02769 25-607)
T1 construct: Negative control antigen of the phage ELISA; also called 송아지 혈청 알부민
assay: phage ELISA, 1% BSA coated, anti-M13 peroxidase, OD 492 nm

binder: SC06-429 (scFv) scFv: QVQLVQSGAEVKNPGESLKISCKGSGYTFTSYWIGWVRQMPGKGLEWMGSIYPGDSDTRYSPSFQGQVTISVDKSISTAYLQWSSLKASDTAMYYCARQYRAGSTTRFDPWGQGTLVTVSSGTGGSGGTGSGTGGSTDVVMTQSPLSLPVTPGEPASISCRSSQSLRHRNGNNYLDWYLQKPGQSPQLLIYLGSNRASGVPDRFSGSGSGTDFTLKISRVEAEDVGIYYCMQALQTPLTFGGGTKVEIK
binding result: no binding
--
binder: SC06-049 (scFv) scFv: QVQLVQSGAEVKKPGESLKISCKGSGYSFTSYWIGWVRQMPGKGLEWMGIIYPGDSDTRYSPSFQGQVTISADKSIGTAYLQWSSLKASDTAMYYCARLFRVRGGHFDSWGQGTLVTVSSGTGGSGGTGSGTGGSTQSALTQPASVSGSPGQSITISCTGTNSDVGGYNYVSWYQQHPGKAPKLLIYDVTNRPSGVSNRFSASKSGNTASLTISGLQAEDEADYYCSSFTSSSTRVFGGGTKLTVL
binding result: no binding
--
binder: SC05-159 (scFv) scFv: QVQLVQSGAEVKKPGATVKISCKVSGYTFTDYYMHWVQQAPGKGLEWMGLVDPEDGETIYAEKFQGRVTITADTSTDTAYMELSSLRSDDTAVYYCARAEVMTTINNWYFDLWGRGTLVTVSSGTGGSGGTGSGTGGSTSYVLTQPPSASGTPGQRVTISCSGSSSNIGSNNVSWYQQLPGTAPKLLIYSNNQRPSGVPDRFSGSKSGTSASLAISGLQSEDEADYYCAAWDDSLNGWVFGGGTKLTVL
binding result: no binding
